These data points were gathered from ChEMBL document CHEMBL1158415.

Assay: Octanol-water partition coefficient, log P of the compound
Format: physicochemical
Listed here are molecules together with their documented logP.

molecule: Cc1ccc(S(=O)(=O)N2N=C3CCCCC3C2c2ccc(F)cc2)cc1 (stereo unspecified)
logP: 5.4
--
molecule: O=S(=O)(c1ccccc1)N1N=C2CCCCC2C1c1ccc(Cl)cc1 (stereo unspecified)
logP: 5.4
--
molecule: COc1ccc(C2C3CCCCC3=NN2S(C)(=O)=O)cc1 (stereo unspecified)
logP: 2.9
--
molecule: COc1ccc(C2C3CCCCC3=NN2S(=O)(=O)c2ccc([N+](=O)[O-])cc2)cc1 (stereo unspecified)
logP: 4.5
--
molecule: O=[N+]([O-])c1ccc(S(=O)(=O)N2N=C3CCCCC3C2c2ccc(F)cc2)cc1 (stereo unspecified)
logP: 4.9
--
molecule: O=S(=O)(c1ccccc1)N1N=C2CCCCC2C1c1ccc(F)cc1 (stereo unspecified)
logP: 5
--
molecule: O=S(=O)(c1ccc(Cl)cc1)N1N=C2CCCCC2C1c1ccc(Cl)cc1 (stereo unspecified)
logP: 5.9
--
molecule: COc1ccc(C2C3CCCCC3=NN2S(=O)(=O)c2ccccc2)cc1 (stereo unspecified)
logP: 4.6
--
molecule: O=S(=O)(c1cccc2ccccc12)N1N=C2CCCCC2C1c1ccc(Cl)cc1 (stereo unspecified)
logP: 6.4
--
molecule: COc1ccc(C2C3CCCCC3=NN2S(=O)(=O)c2ccc(C)cc2)cc1 (stereo unspecified)
logP: 5.1
--
molecule: Clc1ccc(C2NN=C3CCCCC32)cc1 (stereo unspecified)
logP: 4.4

----------
The entries below are paired with their reported logP.
Experiment: Octanol-water partition coefficient, log P of the compound
Format: physicochemical
measurement.kind: logP

compound: Cc1ccc(S(=O)(=O)N2N=C3CCCCC3C2c2ccc(Cl)cc2)cc1 (stereo not given)
observed.value: 5.8

compound: O=S(=O)(c1ccc(Cl)cc1)N1N=C2CCCCC2C1c1ccc(F)cc1 (stereo not given)
observed.value: 5.1

compound: O=S(=O)(c1cccc2ccccc12)N1N=C2CCCCC2C1c1ccc(F)cc1 (stereo not given)
observed.value: 6

compound: COc1ccc(C2C3CCCCC3=NN2S(=O)(=O)c2ccc(Cl)cc2)cc1 (stereo not given)
observed.value: 4.3

compound: Fc1ccc(C2NN=C3CCCCC32)cc1 (stereo not given)
observed.value: 4

compound: CS(=O)(=O)N1N=C2CCCCC2C1c1ccc(F)cc1 (stereo not given)
observed.value: 3.3

compound: O=[N+]([O-])c1ccc(S(=O)(=O)N2N=C3CCCCC3C2c2ccc(Cl)cc2)cc1 (stereo not given)
observed.value: 5.3

compound: COc1ccc(C2C3CCCCC3=NN2S(=O)(=O)c2cccc3ccccc23)cc1 (stereo not given)
observed.value: 5.6

compound: COc1ccc(C2NN=C3CCCCC32)cc1 (stereo not given)
observed.value: 3.6

compound: CS(=O)(=O)N1N=C2CCCCC2C1c1ccc(Cl)cc1 (stereo not given)
observed.value: 3.7

----------
Measured -logMIC values are reported for all entries that follow.
Test system: Pseudomonas aeruginosa
Test: Antibacterial activity against Pseudomonas aeruginosa after 24 hrs by tube dilution method
Type: functional

compound: COc1ccc(C2NN=C3CCCCC32)cc1 (stereo not given)
study.system: Pseudomonas aeruginosa
-logMIC: 2.19

compound: Cc1ccc(S(=O)(=O)N2N=C3CCCCC3C2c2ccc(F)cc2)cc1 (stereo not given)
study.system: Pseudomonas aeruginosa
-logMIC: 2.67

compound: O=[N+]([O-])c1ccc(S(=O)(=O)N2N=C3CCCCC3C2c2ccc(Cl)cc2)cc1 (stereo not given)
study.system: Pseudomonas aeruginosa
-logMIC: 2.78

compound: COc1ccc(C2C3CCCCC3=NN2S(=O)(=O)c2cccc3ccccc23)cc1 (stereo not given)
study.system: Pseudomonas aeruginosa
-logMIC: 2.67

compound: O=S(=O)(c1ccc(Cl)cc1)N1N=C2CCCCC2C1c1ccc(Cl)cc1 (stereo not given)
study.system: Pseudomonas aeruginosa
-logMIC: 2.77

----------
# -logMIC per record follows
Test system: Candida albicans
Test: Antifungal activity against Candida albicans after 48 hrs by tube dilution method
Assay type: functional

molecule: COc1ccc(C2C3CCCCC3=NN2S(C)(=O)=O)cc1 (configuration not stated)
study.system: Candida albicans
-logMIC: 2.59
//
molecule: Cc1ccc(S(=O)(=O)N2N=C3CCCCC3C2c2ccc(Cl)cc2)cc1 (configuration not stated)
study.system: Candida albicans
-logMIC: 2.59
//
molecule: OC(Cn1cncn1)(Cn1cncn1)c1ccc(F)cc1F
study.system: Candida albicans
-logMIC: 3.16
//
molecule: COc1ccc(C2C3CCCCC3=NN2S(=O)(=O)c2ccccc2)cc1 (configuration not stated)
study.system: Candida albicans
-logMIC: 2.61
//
molecule: O=S(=O)(c1ccc(Cl)cc1)N1N=C2CCCCC2C1c1ccc(F)cc1 (configuration not stated)
study.system: Candida albicans
-logMIC: 2.59
//
molecule: CS(=O)(=O)N1N=C2CCCCC2C1c1ccc(Cl)cc1 (configuration not stated)
study.system: Candida albicans
-logMIC: 2.59
//
molecule: Fc1ccc(C2NN=C3CCCCC32)cc1 (configuration not stated)
study.system: Candida albicans
-logMIC: 2.16
//
molecule: Clc1ccc(C2NN=C3CCCCC32)cc1 (configuration not stated)
study.system: Candida albicans
-logMIC: 2.27
//
molecule: O=S(=O)(c1ccc(Cl)cc1)N1N=C2CCCCC2C1c1ccc(Cl)cc1 (configuration not stated)
study.system: Candida albicans
-logMIC: 2.77
//
molecule: COc1ccc(C2C3CCCCC3=NN2S(=O)(=O)c2ccc(Cl)cc2)cc1 (configuration not stated)
study.system: Candida albicans
-logMIC: 2.61
//
molecule: O=S(=O)(c1ccccc1)N1N=C2CCCCC2C1c1ccc(Cl)cc1 (configuration not stated)
study.system: Candida albicans
-logMIC: 2.62
//
molecule: COc1ccc(C2C3CCCCC3=NN2S(=O)(=O)c2cccc3ccccc23)cc1 (configuration not stated)
study.system: Candida albicans
-logMIC: 2.62
